- TESTED TARGET: Fes (UniProt P07332)
- Sequence (P07332 whole entry, looked up): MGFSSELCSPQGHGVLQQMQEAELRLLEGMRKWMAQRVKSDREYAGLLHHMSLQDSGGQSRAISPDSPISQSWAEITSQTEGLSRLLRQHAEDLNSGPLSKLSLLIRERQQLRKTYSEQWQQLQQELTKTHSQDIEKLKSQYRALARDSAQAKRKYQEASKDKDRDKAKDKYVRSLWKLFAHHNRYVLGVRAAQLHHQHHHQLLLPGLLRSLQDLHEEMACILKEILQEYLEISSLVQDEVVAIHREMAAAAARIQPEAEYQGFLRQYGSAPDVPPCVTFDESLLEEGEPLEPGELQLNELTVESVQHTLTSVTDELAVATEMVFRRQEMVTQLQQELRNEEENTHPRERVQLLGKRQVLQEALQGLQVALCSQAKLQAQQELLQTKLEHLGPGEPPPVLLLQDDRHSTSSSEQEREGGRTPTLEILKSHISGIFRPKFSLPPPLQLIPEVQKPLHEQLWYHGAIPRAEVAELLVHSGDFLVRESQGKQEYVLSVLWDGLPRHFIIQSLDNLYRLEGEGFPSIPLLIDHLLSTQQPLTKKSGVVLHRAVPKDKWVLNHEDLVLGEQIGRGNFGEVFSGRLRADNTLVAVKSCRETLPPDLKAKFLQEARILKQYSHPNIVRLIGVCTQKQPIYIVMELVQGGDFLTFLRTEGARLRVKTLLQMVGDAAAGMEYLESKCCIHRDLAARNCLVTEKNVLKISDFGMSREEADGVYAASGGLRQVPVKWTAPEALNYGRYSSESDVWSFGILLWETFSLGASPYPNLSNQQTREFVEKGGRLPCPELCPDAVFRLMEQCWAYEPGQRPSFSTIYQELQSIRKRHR
- EXPERIMENT DESCRIPTION: phosphorylation enrichment, bacterial display (enrichment ratio); higher = better substrate or ligand; peptides without Tyr show the background
READOUT NAME: phosphorylation enrichment

INSERT INTO measurements (record_sequence, measurement) VALUES
  ('IYHLSYHHNCE [PDE6B_Y227_L228H]', 1.34),
  ('FEDTLYTVLHR [UNC13D_Y61_A59T_YF]', 1.38),
  ('FLAVGYHMPHI [IDS_Y225_K227M]', 0.833),
  ('SVVVPYKPPEV [TP53_Y220_E221K]', 0.792),
  ('TVLEHYRRTHC [MYBPC3_Y1119]', 0.672),
  ('KDFTKYVAFIE [KDM4B_Y31_N29T_YF]', 1.06),
  ('TWSRSYRSDRL [CRYBB1_Y131_S129R]', 0.715),
  ('CHRQLYHKCTH [F12_Y58_Y53C]', 0.796),
  ('LFHENYNAGTY [CFI_Y421_I416L]', 1.1),
  ('SEDSEYYKAFE [CASQ2_Y178]', 1.16),
  ('AASTDYFKRGD [PDHA1_Y242_YF]', 0.663),
  ('LDCNEYFRDLN [HPRT1_Y198_Y195C]', 1.73),
  ('AGRTGYDNREI [BCL2_Y9]', 0.955),
  ('LFLALYTGLVH [PIGB_Y402]', 2.02),
  ('AGTILYHAHLG [ASS1_Y291_D296G]', 1.07),
  ('EEEFEYMNRRR [ERBB3_Y1199_D1194E_YF]', 1.24),
  ('FVTCTYSPALN [TP53_Y126_S121F]', 1.32),
  ('FVSAAYVKKLD [SPTAN1_Y1020_P1017S]', 0.65),
  ('GTYEDYVEGLR [MYL6_Y89]', 1.22),
  ('PIPAAYNRYDQ [CDC73_Y290]', 0.751),
  ('SLIDGYFRLTA [JAK2_Y372_YF]', 1.26),
  ('GMAHNYRNRSQ [AASS_Y188_S191R]', 0.629),
  ('HSRTRYERNIE [F2_Y434]', 0.986),
  ('YRVAGYKTQGG [TIA1_Y383_E384K]', 0.461),
  ('KEAALYPHLLP [SQSTM1_Y383_P387L]', 0.757),
  ('AGARMYGVLPW [PLP1_Y207_D203G]', 0.75),
  ('ISKKIYDTIHD [CTNNA3_Y614]', 0.587),
  ('ATFRGYDSDNP [MMUT_Y146_H143Y_YF]', 0.896),
  ('TTTQAYRVDER [PRKN_Y391]', 0.758);

###

- TESTED TARGET: Fes (UniProt P07332)
- EXPERIMENT DESCRIPTION: phosphorylation enrichment, bacterial display (enrichment ratio); higher = better substrate or ligand; peptides without Tyr show the background
Recorded phosphorylation enrichment, one value per entry.
READOUT NAME: phosphorylation enrichment

INSERT INTO assay_data (record_sequence, measurement) VALUES
  ('ITSLLYHVVGW [GBA_Y412_N409S]', 1.31),
  ('LNECHYGALIG [BPGM_Y92_R90C]', 1.38),
  ('DVCKNYAEAKD [ALB_Y343]', 1.19),
  ('KHGGNYVPAPE [OSCP1_Y237_K242E]', 0.626),
  ('TIMTNYNPNFC [ALK_Y1092_D1091N_YF]', 1.06),
  ('GVRYTYTIDGS [DCX_Y105_I104T]', 1.08),
  ('VLTSTYRGGGG [HBA1_Y141_K140T]', 0.628);

###

- TESTED TARGET: Grb2 SH2 (UniProt P62993)
- Sequence (P62993 whole entry, looked up): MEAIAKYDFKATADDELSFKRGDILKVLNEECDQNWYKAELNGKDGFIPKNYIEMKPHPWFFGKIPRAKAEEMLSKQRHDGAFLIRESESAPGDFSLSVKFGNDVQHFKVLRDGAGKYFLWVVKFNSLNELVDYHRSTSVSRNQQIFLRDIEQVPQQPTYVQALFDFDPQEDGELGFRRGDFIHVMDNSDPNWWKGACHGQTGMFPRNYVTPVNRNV
- EXPERIMENT DESCRIPTION: SH2 binding enrichment of the phosphorylated peptide, bacterial display (enrichment ratio); higher = better substrate or ligand; peptides without Tyr show the background
Assign met to entries whose SH2 binding enrichment meets or exceeds 0.9; assign not met to the rest.

INSERT INTO measurements (record_sequence, class_label) VALUES
  ('EIRTQYEAMAS [GFAP_Y242]', 'not met'),
  ('ANKNVYEVEPT [MEGF10_Y1075_R1072K]', 'not met'),
  ('NLNGKYYKPRA [ANGPTL3_Y417_N418Y]', 'met'),
  ('LLKAGYQGVLR [TTPA_Y100_H101Q]', 'met'),
  ('TFVVLYDAELT [ERCC4_Y581_R576T_YF]', 'met'),
  ('WNNLDYMDSRR [GAA_Y407_D404N]', 'not met'),
  ('ASRKFYAMKIL [AKT3_Y174_G171R_YF]', 'not met'),
  ('TLMNAYSSRSH [KIF11_Y231]', 'not met'),
  ('DPKFHYDNTAG [KDR_Y1214]', 'met'),
  ('IKKLIYVFLVI [JAGN1_Y42_H44Y_YF]', 'met'),
  ('ETPSEYLEIVR [TMEM130_Y412]', 'not met'),
  ('TFRPPYFHRDC [HGD_Y333_N337D_YF]', 'met'),
  ('PFTRNYFVWAV [CYBA_Y87_R90W_YF]', 'met'),
  ('LPHVIYCRLWR [SMAD2_Y128]', 'met'),
  ('ALVLQYLRVPL [F9_Y371]', 'met'),
  ('TRSYKCLLLSM [NF1_Y491_Y491C]', 'met'),
  ('KINKMYSDHAM', 'not met'),
  ('QDKDLYPCPGT [RLF_Y671_R668K]', 'not met'),
  ('ALEKTYNTYRS [B4GALNT2_Y538]', 'not met'),
  ('FPLELYERVRM [PRKCG_Y312_YF]', 'not met'),
  ('TVSSDYLHPQY [CCPG1_Y569_F566S]', 'met'),
  ('EFNLMYHGTKE [IRF6_Y97_D98H]', 'not met'),
  ('GGYTCCCDGKK [PROS1_Y266_Y266C]', 'not met'),
  ('YFWDGYMPRQY [GSS_Y270_R267W]', 'met'),
  ('CQKRKYIEIDS [SDAD1_Y580_S575C]', 'met'),
  ('AHLLQYNHQVK [LGALS3_Y221_R224Q]', 'not met'),
  ('EEEFEYMNRRR [ERBB3_Y1199_D1194E_YF]', 'met');

###

- TESTED TARGET: FGFR1 (UniProt P11362)
- Sequence (P11362 whole entry, looked up): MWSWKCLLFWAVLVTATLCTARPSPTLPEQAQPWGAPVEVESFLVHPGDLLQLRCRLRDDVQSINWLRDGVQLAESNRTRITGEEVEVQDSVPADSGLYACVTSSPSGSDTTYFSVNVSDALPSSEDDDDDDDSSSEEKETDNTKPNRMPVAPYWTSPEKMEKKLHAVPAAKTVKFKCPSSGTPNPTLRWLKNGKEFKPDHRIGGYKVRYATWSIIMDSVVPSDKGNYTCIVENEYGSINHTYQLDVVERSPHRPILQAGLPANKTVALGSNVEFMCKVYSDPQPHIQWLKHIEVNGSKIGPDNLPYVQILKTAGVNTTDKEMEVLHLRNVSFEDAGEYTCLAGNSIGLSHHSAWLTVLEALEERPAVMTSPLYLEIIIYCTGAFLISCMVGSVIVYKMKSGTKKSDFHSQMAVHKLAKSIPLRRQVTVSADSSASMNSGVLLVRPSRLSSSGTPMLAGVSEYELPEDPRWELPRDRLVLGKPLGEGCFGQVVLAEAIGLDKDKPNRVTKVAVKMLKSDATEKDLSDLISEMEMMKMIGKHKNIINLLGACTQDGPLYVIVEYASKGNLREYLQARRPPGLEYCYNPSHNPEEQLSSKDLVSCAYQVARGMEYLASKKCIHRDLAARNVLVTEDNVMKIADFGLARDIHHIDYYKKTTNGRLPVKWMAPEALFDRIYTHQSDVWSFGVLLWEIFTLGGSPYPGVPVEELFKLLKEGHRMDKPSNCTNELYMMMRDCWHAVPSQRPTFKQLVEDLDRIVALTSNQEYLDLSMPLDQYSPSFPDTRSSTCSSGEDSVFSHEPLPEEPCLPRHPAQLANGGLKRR
- EXPERIMENT DESCRIPTION: phosphorylation enrichment, bacterial display (enrichment ratio); higher = better substrate or ligand; peptides without Tyr show the background
READOUT NAME: phosphorylation enrichment

INSERT INTO results (record_sequence, measurement) VALUES
  ('AIYWRYSKFFD [SH3PXD2B_Y45_R43W]', 0.57),
  ('FRQLQYCPSVE [CTNND2_Y508_YF]', 0.525),
  ('MEVEQYIFVKC [CYBB_Y324_G322E]', 1.98),
  ('ASENVYVNIAH [CTSC_Y150]', 3.4),
  ('ALKKPYGVLYK [RPF2_Y59]', 0.455),
  ('NELTFYCFKKD [CD59_Y87_C89Y_YF]', 0.456),
  ('IDPFIYTPFGS [CYP3A4_Y432_YF]', 0.584),
  ('DPEGAYTTRGG [EPHA3_Y779_A777G]', 0.369),
  ('VSGIPYSQPKQ [NEU1_Y251_G252S]', 0.389),
  ('FQEKGYNKELR [CHRND_Y38]', 0.471),
  ('GFPVHYTDVSN [DNMT3B_Y815]', 0.439),
  ('NGSKGYAYVHF [PABPC5_Y147]', 0.736),
  ('FLAVGYHMPHI [IDS_Y225_K227M]', 0.485),
  ('SVVVPYAPPEV [TP53_Y220_E221A]', 0.589),
  ('QNWELYSEGLG [CNKSR1_Y665_R662W]', 0.744),
  ('YSNKLHYQLEQ [PDPR_Y109_Y109H]', 0.435),
  ('PLDGEYLTLQI [TP53_Y327_F328L]', 1.64),
  ('RSGIFYKPESL [L2HGDH_Y103_H98R_YF]', 0.572),
  ('SHRQDYLVGNK [GSTA1_Y147_G144R]', 0.324),
  ('KRGIDYILRHM [FRMD1_Y225]', 0.457),
  ('WQQQSYLDSVI [CTNNB1_Y30_G34V]', 0.579),
  ('ICFSDYVEVAD [PHACTR1_Y525_R521C]', 2.34),
  ('RIAFQYGDTDL [MYBPC3_Y340_V342D]', 0.703),
  ('DFFDLYGGKKF [PTPN11_Y66_E69K_YF]', 0.57),
  ('ADFPDCKFRPR [SOX11_Y116_Y116C_YF]', 0.532),
  ('EREYKYGAHKY [OAT_Y50_N54K]', 0.414),
  ('RSAGKDDVYLI [MECP2_Y120_Y120D]', 0.513),
  ('FGFPGYQSKHF [TIMP3_Y177_YF]', 0.47),
  ('FLGKGYSDGGC [MC4R_Y35_S30F]', 0.672);

// provenance: the supplement of paper PMC10065799
